- target.entity: Substance-K receptor (Homo sapiens, UniProt P21452)
- Sequence (P21452 whole entry): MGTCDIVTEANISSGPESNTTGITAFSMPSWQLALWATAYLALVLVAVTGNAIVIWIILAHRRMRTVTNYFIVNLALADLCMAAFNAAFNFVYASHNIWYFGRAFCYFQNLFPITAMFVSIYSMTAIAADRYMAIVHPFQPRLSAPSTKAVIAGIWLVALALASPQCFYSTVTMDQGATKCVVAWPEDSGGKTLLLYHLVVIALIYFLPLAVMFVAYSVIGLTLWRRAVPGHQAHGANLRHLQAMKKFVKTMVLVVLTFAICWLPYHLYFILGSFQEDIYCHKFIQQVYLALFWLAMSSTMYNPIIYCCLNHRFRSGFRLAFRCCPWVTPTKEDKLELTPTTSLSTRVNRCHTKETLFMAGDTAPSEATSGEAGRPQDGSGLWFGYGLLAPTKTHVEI
- test.summary: In vitro inhibition of [125I]NKA binding to transfected Chinese hamster ovary cells (CHO cells) expressing recombinant human Tachykinin receptor 2
value.type: IC50 (nM)

Some solved cases for reference:
1. CN(C(=O)c1cc(C(F)(F)F)cc(C(F)(F)F)c1)[C@H](/C=C/C(=O)N[C@H]1CCCCNC1=O)Cc1ccc(Cl)cc1    300
2. CN(C(=O)c1cc(C(F)(F)F)cc(C(F)(F)F)c1)[C@@H](/C=C/C(=O)N[C@@H]1CCCCNC1=O)Cc1ccc(Cl)cc1    24
3. CN(C(=O)c1cc(C(F)(F)F)cc(C(F)(F)F)c1)[C@@H](/C=C/C(=O)N[C@H]1CCCCNC1=O)Cc1ccc(Cl)cc1 (mixture of isomers)    120

[a] CN(C(=O)c1cc(C(F)(F)F)cc(C(F)(F)F)c1)[C@H](/C=C/C(=O)N[C@@H]1CCCCNC1=O)Cc1ccc(Cl)cc1
[b] CN(C(=O)c1cc(C(F)(F)F)cc(C(F)(F)F)c1)C(/C=C/C(=O)NC1CCCCNC1=O)Cc1ccc(Cl)cc1 (mixture of isomers)
Could you point out whether the larger IC50 belongs to a or to b ? Kindly state the label of the option you pick.
a
(a: 123 nM, b: 55 nM)
